Please provide measured abundance fitness for the entries that follow.
B1: 1-phosphatidylinositol 4,5-bisphosphate phosphodiesterase gamma-2, residues 772 to 827; numbered along this chain, P16885 (parent)
chain: RTVKALYDYKAKRSDELSFCRGALIHNVSKEPGGWWKGDYGTRIQQYFPSNYVEDI

- Variants of: B1
- Experimental details: abundance fitness (aPCA) (normalised: wild type 0, dead -1); higher = more abundant; growth selection in yeast, the domain comes from the species named
- Test context: Homo sapiens

Sequence variant	abundance fitness
W36S	0.22
V28C	-0.568

Give abundance fitness for all variants that follow.
1. K30P
2. L24K
3. Y47H
4. D15V
5. K10A

OUTPUT:
[0.246, -0.215, -0.437, -0.041, -0.319]
